Data provenance is PubChem BioAssay AID2685.

- test.protocol: qHTS Assay for Lipid Storage Modulators in Drosophila S3 Cells
- condition.details: BODIPY lipid droplet fluorescence, 18-24 h, cells fed with added oleic acid; series mostly up to 46.1 µM
The whole screen tested about 320,000 compounds, of which about 2,100 (0.66%) were called active. Another 53% or so got no clear call; they are omitted. The call rests on the fitted dose curve; in most records, active means well fitted inhibition curve with a large enough effect in the signal ratio, with a control signal flat (not every such curve was filed as active); inconclusive means small, poorly fitted or top-dose-only effect, or effect the other way, or a change in a side signal; inactive means flat fitted curve, though single readings scatter; the % refers to the signal ratio. The sample as a whole holds a higher share of actives than the screen did.
Possible outcomes: Y for active, N for inactive

compound=COC(=O)[C@@H](Cc1ccc(O)cc1)NC(=O)[C@H]1CCC(=O)N1C(=O)OCc1ccccc1 assigned_category=N
compound="COc1ccc(NC(=O)C(OC(=O)c2ccc([N+](=O)[O-])o2)c2ccccc2)cc1Cl (stereo not given)" assigned_category=N
compound="CC(C)CC(NC(=O)C1CCC(=O)N1C(=O)OCc1ccccc1)C(=O)NC(Cc1ccccc1)C(N)=O (stereo not given)" assigned_category=N
compound=CCOc1ccc(N2C(=O)Cc3ccccc3C2=O)cc1 assigned_category=Y
compound=COc1ccc(N2C(=O)Cc3ccccc3C2=O)cc1 assigned_category=N

----------
- test.protocol: qHTS Assay for Lipid Storage Modulators in Drosophila S3 Cells
- condition.details: BODIPY lipid droplet fluorescence, 18-24 h, cells fed with added oleic acid; series mostly up to 46.1 µM
About 2,100 (0.66%) of roughly 320,000 compounds were called active. Not shown: some 53% with an inconclusive outcome. Calls come from the whole dose curve; as a rule, active = well fitted inhibition curve with a large enough effect in the signal ratio, with a control signal flat (not every such curve was filed as active); inconclusive = small, poorly fitted or top-dose-only effect, or effect the other way, or a change in a side signal; inactive = flat fitted curve, though single readings scatter; the % refers to the signal ratio. For the sample, actives were picked, then their nearest neighbours and some compounds at random.
Possible outcomes: Yes (active), No (inactive)

compound=COc1cc2oc3ccccc3c(=O)c2cc1OC assigned_category=No
compound=Cn1c2ccccc2c(=O)c2ccc(-c3ccc4c(c3)OCO4)cc21 assigned_category=No
compound="COc1ccc(CNC(=O)C2CCCN(c3ncnc4c3nc3n4CCCCC3)C2)cc1 (stereo not drawn)" assigned_category=No
compound=Cn1c2ccccc2c(=O)c2ccc(C#Cc3ccc(N)cc3)cc21 assigned_category=No
compound=Cc1nc(-c2ccc(S(=O)(=O)Nc3cc(S(=O)(=O)N(C)C)ccc3C)s2)cs1 assigned_category=No
compound="CC1CCN(C(=O)C2CCCN(c3ncnc4c3nc3n4CCCCC3)C2)CC1 (stereo not drawn)" assigned_category=No
compound=COC(=O)c1ccc2c(=O)n(-c3ccccc3)c(=S)[nH]c2c1 assigned_category=No
compound=CN(C)c1ccc(-c2ccc3c(=O)c4ccccc4n(C)c3c2)cn1 assigned_category=Yes
compound=O=C(c1ccco1)N1CCN(C(=O)C2CC2)CC1 assigned_category=No
compound="O=C(NCCCN1CCCCC1)C1CCCN(c2ncnc3c2nc2n3CCCCC2)C1 (stereo not drawn)" assigned_category=Yes
compound=CSc1ccc(S(=O)(=O)NC2CC2)cc1 assigned_category=No
compound=Cn1c2ccccc2c(=O)c2ccc(C#Cc3ccccn3)cc21 assigned_category=Yes
compound=COc1ccc(OC)c(N(CC(=O)Nc2ccc(NC(C)=O)cc2)S(C)(=O)=O)c1 assigned_category=No
compound=COc1ccccc1CNc1cncnc1 assigned_category=No
compound=COc1cccc2oc3cc(C#Cc4ccccn4)ccc3c(=O)c12 assigned_category=Yes
compound=COc1cc(OC)cc(-c2c(-c3cccs3)c3cc(-c4ccc(N(C)C)nc4)ccc3n2C)c1 assigned_category=No
compound=Nc1cccc(C#Cc2ccc3c(=O)c4ccccc4oc3c2)c1 assigned_category=No
compound=Cn1c2ccccc2c(=O)c2cc(C#Cc3ccccn3)ccc21 assigned_category=No
compound=Cc1nc(=O)c(-c2ccccc2)c(C)n1-c1ccc(O)cc1 assigned_category=No
compound=CC(=O)NNC(=O)CCn1c2c(c3ccccc31)CCCC2 assigned_category=No
compound="CC1CC(C)CN(CCCNC(=O)C2CCCN(c3ncnc4c3nc3n4CCCCC3)C2)C1 (stereo not drawn)" assigned_category=No
compound=CC(=O)Nc1ccc(-n2c(C)nc(=O)c(-c3ccccc3)c2C)cc1 assigned_category=Yes
compound=COc1cc(C(=O)NCC(=O)OCC(=O)Nc2ncc(Cl)cc2Cl)cc(OC)c1OC assigned_category=No

----------
- test.protocol: qHTS Assay for Lipid Storage Modulators in Drosophila S3 Cells;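 on cell number change: cells counted by Cell Tracker Red CMTPX staining in the red channel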
- condition.details: BODIPY lipid droplet fluorescence, 18-24 h, cells fed with added oleic acid; measured here: cell count max response
Among all 320,000 compounds or so, about 2,100 (0.66%) were called active. Another 53% or so got no clear call; they are omitted. This excerpt belongs to a sample that is enriched for actives.
value.type: cell number change (%)

compound=O=C(Nc1ccccn1)c1ccc([N+](=O)[O-])o1 endpoint_result=-6.3
compound=C=CCn1c(SCc2ccc3c(c2)OCO3)nc2scc(-c3ccco3)c2c1=O endpoint_result=-2.61
compound=COc1ccc(/C=N/NC(=O)c2cccc(Br)c2)cc1CSc1ccccn1 endpoint_result=25.3
compound=Cc1ccc(S(=O)(=O)N2CCOCC2)cc1NC(=O)COc1ccc(C(=O)c2ccccc2)cc1 endpoint_result=12.9
compound=CCN(CCNC(=O)C1CCN(S(=O)(=O)c2c(C)noc2C)CC1)c1ccccc1 endpoint_result=0.289
compound=N/C(=N\OC(=O)c1cc([N+](=O)[O-])ccc1Cl)c1cccnc1 endpoint_result=-8.86
compound=Cc1cccc(NC(=O)c2ccc([N+](=O)[O-])o2)c1C endpoint_result=8.85
compound=O=C(Nc1cccc2ncccc12)c1ccc(-c2ccc(Br)cc2)o1 endpoint_result=-12.1
compound="NC(=O)CCC(=O)N1CCCC(C(=O)c2ccc3c4c(cccc24)CC3)C1 (stereo not drawn)" endpoint_result=12.7
compound="CC(Oc1ccc(Br)cc1)C(=O)Nc1ccc(N2CCOCC2)cc1N1CCOCC1 (stereo not drawn)" endpoint_result=-0.694
compound=CCCn1c(NC(=O)c2ccc([N+](=O)[O-])o2)nc2ccccc21 endpoint_result=-9.34
compound=CCOC(=O)c1n[nH]c(=O)c2ccccc12 endpoint_result=-14.5
compound=C=CCn1c(SC(F)F)nc2scc(-c3ccco3)c2c1=O endpoint_result=0.451
compound=CCOc1ccc(/C=C/c2nc(C#N)c(NCCCOC)o2)cc1 endpoint_result=-10.5
compound=COc1ccc2c(CCNC(N)=S)c[nH]c2c1 endpoint_result=9.98
compound=O=C(O)CCCCCNc1nc2ncn(Cc3ccccc3)c2c(=O)[nH]1 endpoint_result=-20
compound=CCNc1oc(/C=C/c2ccc(OCC)cc2)nc1C#N endpoint_result=-11.4
compound=CCCn1c(NC(=O)c2ccco2)nc2ccccc21 endpoint_result=-15.8
compound="O=C(c1ccc(OC2CCN(CCc3ccccc3)CC2)cc1)N1CCCC(CO)C1 (stereo not drawn)" endpoint_result=4.02
compound=O=C(COc1ccccc1Cl)Nc1ccc(S(=O)(=O)N2CCOCC2)cc1 endpoint_result=-11.3
compound=Nc1ccc(S(=O)(=O)c2ccc(N)c(N)c2)cc1 endpoint_result=15.7
compound=O=C(CSc1ncnc2sccc12)Nc1ccc(S(=O)(=O)N2CCOCC2)cc1 endpoint_result=4.37
compound=O=C(Nc1cccc2ncccc12)c1ccc([N+](=O)[O-])o1 endpoint_result=26.1

----------
- test.protocol: qHTS Assay for Lipid Storage Modulators in Drosophila S3 Cells;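 on cell number change: cells counted by Cell Tracker Red CMTPX staining in the red channel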
- condition.details: BODIPY lipid droplet fluorescence, 18-24 h, cells fed with added oleic acid; measured here: cell count max response
About 2,100 (0.66%) of roughly 320,000 compounds were called active. About 53% were inconclusive and are not listed. What follows is part of a selection rich in actives, with near analogues and random picks from the rest.
value.type: cell number change

compound=CC(=O)Nc1cccc(Oc2ccc3c(c2)C(=O)NC3=O)c1 value_type="cell number change" endpoint_result=-4.38%
compound=COc1ccc2c(C)cc(N3CCCCCC3)nc2c1 value_type="cell number change" endpoint_result=23.5%
compound=O=[N+]([O-])c1ccc(N2CCN(CCO)CC2)cc1Sc1nc2ccccc2[nH]1 value_type="cell number change" endpoint_result=-10.6%
compound=Cc1nc(-c2ccc(S(=O)(=O)Nc3cc(S(=O)(=O)N(C)C)ccc3C)s2)cs1 value_type="cell number change" endpoint_result=1.19%
compound="Cc1ccc(C(C(=O)NCc2ccc(F)cc2)N(Cc2ccco2)C(=O)c2snc(C(N)=O)c2N)o1 (stereo unspecified)" value_type="cell number change" endpoint_result=-23%
compound=CCn1c(CCNC(=O)c2ccc(Cl)cc2)n[nH]c1=S value_type="cell number change" endpoint_result=24.6%
compound=Cc1ccc(S(=O)(=O)N(C)C)cc1NS(=O)(=O)c1ccc(Cl)s1 value_type="cell number change" endpoint_result=0.163%
compound=CCc1ccc(OCCNC(=O)c2ccc(S(=O)(=O)N(C)C)cc2)cc1 value_type="cell number change" endpoint_result=-5.09%
compound="O=C(c1nc2ccc(Cl)cn2c1CN1CCCC(CO)C1)N1CCc2ccccc2C1 (stereo unspecified)" value_type="cell number change" endpoint_result=10.9%
compound="CCOC(=O)N1CCN(C(=O)C(C)N(c2ccccc2)S(C)(=O)=O)CC1 (stereo unspecified)" value_type="cell number change" endpoint_result=2.57%
compound=CCC(=O)Nc1ccc(Oc2ccc3c(c2)C(=O)NC3=O)cc1 value_type="cell number change" endpoint_result=-7.29%
compound=COc1ccc(N2CCn3c2nc2c3c(=O)n(CCN3CCOCC3)c(=O)n2C)cc1 value_type="cell number change" endpoint_result=-1.98%
compound=CCCC(=O)Nc1cccc(Oc2ccc3c(c2)C(=O)NC3=O)c1 value_type="cell number change" endpoint_result=-28.1%
compound=CN(C)S(=O)(=O)c1ccc(C(=O)NCCOc2ccc(F)cc2)cc1 value_type="cell number change" endpoint_result=5.77%
compound="COc1ccc(N2CC(C)Cn3c2nc2c3c(=O)n(CCN3CCOCC3)c(=O)n2C)cc1 (stereo unspecified)" value_type="cell number change" endpoint_result=5.05%
compound=Cn1c(CCNC(=O)c2ccc(Cl)cc2)n[nH]c1=S value_type="cell number change" endpoint_result=-13.4%
compound=CCCCn1c(-c2cccc3ccccc23)nc2cc3[nH]c(=O)c(C(C)C)nc3cc21 value_type="cell number change" endpoint_result=-23%
compound=COc1ccc([C@@H]2[C@@H]3C(=O)N(C(C)(C)C)C(=O)[C@@H]3[C@]3(Cc4ccc(Cl)cc4)C(=O)N(c4ccc(OC)cc4)C(=O)N23)cc1 value_type="cell number change" endpoint_result=16%
compound=COC(=O)c1ccc(Cl)c(NC(=O)CN2CCN(C)CC2)c1 value_type="cell number change" endpoint_result=-16%
compound=COc1ccc2c(C)cc(N3CCOCC3)nc2c1 value_type="cell number change" endpoint_result=-8.65%
compound="CC(C(=O)N1CCc2ccccc2C1)N(c1ccccc1)S(C)(=O)=O (stereo unspecified)" value_type="cell number change" endpoint_result=-18%
